Assay Info: Haemolytic activity in sheep erythrocytes assessed as induction of haemolysis at 50 ug/ml incubated for 2 hrs relative to control
Assay type: cell-based, Ovis aries, Erythrocyte
Stated Conditions: read-out: Activity
Readout Kind: hemolysis at 2 h, 50 ug/ml

INSERT INTO measurements (molecule_smiles, reading) VALUES
  ('CC(C)CCOc1ccccc1-c1ccccc1OCc1cn([C@H](CCCNC(=N)N)C(=O)NC2CCCCC2)nn1.Cl', '81.8%'),
  ('CC(C)CCOc1ccc2ccccc2c1-c1c(OCc2cn([C@H](CCCNC(=N)N)C(=O)N[C@H](CCCCN)Cn3cc(CC4CCCCC4)nn3)nn2)ccc2ccccc12.Cl.Cl', '71.5%');

Field: hemolysis at 2 h, 50 ug/ml. Fill in for each record below.
1. CC(C)CCOc1ccc2ccccc2c1-c1c(OCc2cn([C@H](CCCNC(=N)N)C(=O)NCCc3ccccc3)nn2)ccc2ccccc12.Cl
2. CC(C)CCOc1ccc2ccccc2c1-c1c(OCC(=O)N[C@H](CCCNC(=N)N)Cn2cc(-c3ccccc3)nn2)ccc2ccccc12.Cl

1: 55.2%; 2: 86%

Field: hemolysis at 2 h, 50 ug/ml. Fill in for each record below.
1. CC(C)CCOc1ccccc1-c1ccccc1OCc1cn([C@H](CCCCN)C(=O)N[C@H](CCCNC(=N)N)Cn2cc(CCc3ccccc3)nn2)nn1.Cl.Cl
2. CC(C)CCOc1ccc2ccccc2c1-c1c(OCC(=O)N[C@H](CCCNC(=N)N)C(=O)NCc2ccccc2)ccc2ccccc12.Cl
3. CC(C)CCOc1ccccc1-c1ccccc1OCc1cn([C@H](CCCCN)C(=O)NCC2CCCCC2)nn1.Cl
4. CC(C)CCOc1ccccc1-c1ccccc1OCc1cn([C@H](CCCNC(=N)N)C(=O)N[C@H](CCCCN)Cn2cc(CC3CCCCC3)nn2)nn1.Cl.Cl

1. 12.6%
2. 100%
3. 98%
4. 33.7%

* * *

System: Klebsiella pneumoniae
Assay Info: Growth inhibition of Klebsiella pneumoniae ATCC 700603 incubated for 18 hrs
Format: organism-based
Answer each item with its documented MIC.

Field: MIC. Fill in for each record below.
1. CC(C)CCOc1ccc2ccccc2c1-c1c(OCc2cn([C@H](CCCCN)C(=O)N[C@H](CCCNC(=N)N)Cn3cc(CC4CCCCC4)nn3)nn2)ccc2ccccc12.Cl.Cl
2. CC(C)CCOc1ccc2ccccc2c1-c1c(OCC(=O)N[C@H](CCCNC(=N)N)C(=O)NCCc2ccc(F)cc2)ccc2ccccc12.Cl
3. CC(C)CCOc1ccc2ccccc2c1-c1c(OCc2cn([C@H](CCCNC(=N)N)C(=O)NCc3ccccc3)nn2)ccc2ccccc12.Cl

1: > 32 µg/mL; 2: > 32 µg/mL; 3: > 32 µg/mL

* * *

Test system: Clostridioides difficile
Assay Info: Antibacterial activity against Clostridium difficile ATCC 700057 incubated for 2 to 4 hrs in pre-reduced brucella broth supplemented with haemin/vitamin K and further incubation in anaerobic condition for 48 hrs
Assay type: functional
Could you mark each record y if its MIC falls strictly under 8 µg/mL, and n if it equals or exceeds it?

Worked cases, answers included:
INSERT INTO results (molecule_smiles, assigned_label) VALUES
  ('CC(C)CCOc1ccccc1-c1ccccc1OCc1cn([C@H](CCCCN)C(=O)NCc2ccccc2)nn1.Cl', 'n'),
  ('CC(C)CCOc1ccccc1-c1ccccc1OCc1cn(C[C@@H](CCCCN)NC(=O)[C@@H](CCCNC(=N)N)n2cc(CC3CCCCC3)nn2)nn1.Cl.Cl', 'y'),
  ('CC(C)CCOc1ccccc1-c1ccccc1OCc1cn([C@H](CCCNC(=N)N)C(=O)NCc2ccc(C(F)(F)F)cc2)nn1.Cl', 'n');

# check: MIC < 8 µg/mL for "CC(C)CCOc1ccccc1-c1ccccc1OCc1cn([C@H](CCCNC(=N)N)C(=O)NCc2cc(F)cc(F)c2)nn1.Cl" n

# iterate: "CC(C)CCOc1ccc2ccccc2c1-c1c(OCc2cn([C@H](CCCCN)C(=O)N[C@H](CCCNC(=N)N)C(=O)NCCc3ccccc3)nn2)ccc2ccccc12.Cl.Cl" n

* * *

Test system: Pseudomonas aeruginosa
Assay Info: Growth inhibition of Pseudomonas aeruginosa ATCC 27853 incubated for 18 hrs
Format: organism-based
Readout Kind: MIC

Sample records with MIC:
INSERT INTO measurements (molecule_smiles, readout_kind, reading) VALUES
  ('CC(C)CCOc1ccc2ccccc2c1-c1c(OCC(=O)N[C@H](CCCNC(=N)N)C(=O)NCCc2ccc(F)cc2)ccc2ccccc12.Cl', 'MIC', '> 32 µg/mL'),
  ('CC(C)CCOc1ccc2ccccc2c1-c1c(OCC(=O)N[C@H](CCCNC(=N)N)C(=O)NCc2ccccc2)ccc2ccccc12.Cl', 'MIC', '> 32 µg/mL');

Now let's try a different one.
Provide the documented MIC with Pseudomonas aeruginosa as the system for "CC(C)CCOc1ccccc1-c1ccccc1OCc1cn([C@H](CCCNC(=N)N)C(=O)NCC2CCCCC2)nn1.Cl" > 32 µg/mL

* * *

Assay Info: Cytotoxicity against HEK293 cells assessed as decrease in cell viability after 20 hrs by resazurin dye-based fluorescence assay
Stated Conditions: human
Readout Kind: CC50 at 20 h

Sample records with CC50 at 20 h:
INSERT INTO results (molecule_smiles, reading) VALUES
  ('CC(C)CCOc1ccccc1-c1ccccc1OCc1cn([C@H](CCCCN)C(=O)NCCc2ccccc2)nn1.Cl', '> 32 mg/L'),
  ('CC(C)CCOc1ccccc1-c1ccccc1OCc1cn([C@H](CCCNC(=N)N)C(=O)NCc2ccc(C(F)(F)F)cc2)nn1.Cl', '> 32 mg/L'),
  ('CC(C)CCOc1ccc2ccccc2c1-c1c(OCC(=O)N[C@H](CCCNC(=N)N)C(=O)NCc2ccccc2)ccc2ccccc12.Cl', '> 32 mg/L');

Field: CC50 at 20 h. Fill in for each record below.
1. CC(C)CCOc1ccccc1-c1ccccc1OCc1cn([C@H](CCCCN)C(=O)NCc2ccc(C(F)(F)F)cc2)nn1.Cl
2. CC(C)CCOc1ccccc1-c1ccccc1OCc1cn([C@H](CCCCN)C(=O)NC2CCCCC2)nn1.Cl
3. CC(C)CCOc1ccccc1-c1ccccc1OCc1cn([C@H](CCCNC(=N)N)C(=O)N[C@H](CCCCN)Cn2cc(CC3CCCCC3)nn2)nn1.Cl.Cl
4. CC(C)CCOc1ccc2ccccc2c1-c1c(OCc2cn([C@H](CCCNC(=N)N)C(=O)N[C@H](CCCCN)Cn3cc(CC4CCCCC4)nn3)nn2)ccc2ccccc12.Cl.Cl
5. CC(C)CCOc1ccccc1-c1ccccc1OCc1cn([C@H](CCCNC(=N)N)C(=O)Nc2cccc(F)c2)nn1.Cl

> 32 mg/L
> 32 mg/L
> 32 mg/L
> 32 mg/L
> 32 mg/L

Field: CC50 at 20 h. Fill in for each record below.
1. CC(C)CCOc1ccccc1-c1ccccc1OCc1cn([C@H](CCCNC(=N)N)C(=O)N[C@H](CCCCN)Cn2cc(Cc3ccccc3)nn2)nn1.Cl.Cl
2. CC(C)CCOc1ccc2ccccc2c1-c1c(OCc2cn([C@H](CCCNC(=N)N)C(=O)N[C@H](CCCCN)Cn3cc(CCc4ccccc4)nn3)nn2)ccc2ccccc12.Cl.Cl
3. CC(C)CCOc1ccccc1-c1ccccc1OCc1cn([C@H](CCCNC(=N)N)C(=O)N[C@H](CCCCN)Cn2cc(C3CCCCC3)nn2)nn1.Cl.Cl

1. > 32 mg/L
2. > 32 mg/L
3. > 32 mg/L

* * *

Answer each item with its documented MIC.
Test system: Acinetobacter baumannii
Assay Info: Growth inhibition of Acinetobacter baumannii ATCC 19606 incubated for 18 hrs without shaking by absorbance based monochromator plate reader analysis
Type: organism-based, ATCC 19606 = CIP 70.34 = JCM 6841
Stated Conditions: in vitro
Give bare numbers, in µg/mL.

INSERT INTO assay_data (molecule_smiles, reading) VALUES
  ('CC(C)CCOc1ccc2ccccc2c1-c1c(OCc2cn([C@H](CCCNC(=N)N)C(=O)N[C@H](CCCCN)Cn3cc(CCc4ccccc4)nn3)nn2)ccc2ccccc12.Cl.Cl', 32);

Field: MIC. Fill in for each record below.
1. CC(C)CCOc1ccccc1-c1ccccc1OCc1cn([C@H](CCCCN)C(=O)N[C@H](CCCNC(=N)N)Cn2cc(Cc3ccccc3)nn2)nn1.Cl.Cl
2. CC(C)CCOc1ccccc1-c1ccccc1OCc1cn([C@H](CCCNC(=N)N)C(=O)N[C@H](CCCCN)Cn2cc(CCc3ccccc3)nn2)nn1.Cl.Cl
3. CC(C)CCOc1ccccc1-c1ccccc1OCc1cn([C@H](CCCCN)C(=O)NCCc2ccc(F)cc2)nn1.Cl

[16, 32, 16]

* * *

Answer each item with its documented MIC.
Tested on: Staphylococcus aureus
Assay Info: Growth inhibition of Staphylococcus aureus ATCC 29213 incubated in MHB broth for 24 hrs
Type: organism-based

Sample records with MIC:
INSERT INTO assay_data (molecule_smiles, readout_kind, reading) VALUES
  ('CC(C)CCOc1ccc2ccccc2c1-c1c(OCc2cn([C@H](CCCCN)C(=O)N[C@H](CCCNC(=N)N)Cn3cc(CC4CCCCC4)nn3)nn2)ccc2ccccc12.Cl.Cl', 'MIC', '4 µg/mL'),
  ('CC(C)CCOc1ccccc1-c1ccccc1OCc1cn([C@H](CCCNC(=N)N)C(=O)N[C@H](CCCCN)Cn2cc(CCc3ccccc3)nn2)nn1.Cl.Cl', 'MIC', '4 µg/mL'),
  ('CC(C)CCOc1ccccc1-c1ccccc1OCc1cn([C@H](CCCCN)C(=O)NCc2ccccc2)nn1.Cl', 'MIC', '8 µg/mL');

Field: MIC. Fill in for each record below.
1. CC(C)CCOc1ccccc1-c1ccccc1OCc1cn([C@H](CCCNC(=N)N)C(=O)NC2CCCCC2)nn1.Cl
2. CC(C)CCOc1ccccc1-c1ccccc1OCc1cn([C@H](CCCNC(=N)N)C(=O)NCc2cc(F)cc(F)c2)nn1.Cl
3. CC(C)CCOc1ccc2ccccc2c1-c1c(OCc2cn([C@H](CCCNC(=N)N)C(=O)NCCc3ccccc3)nn2)ccc2ccccc12.Cl
4. CC(C)CCOc1ccccc1-c1ccccc1OCc1cn([C@H](CCCCN)C(=O)N[C@H](CCCNC(=N)N)Cn2cc(CCc3ccccc3)nn2)nn1.Cl.Cl
5. CC(C)CCOc1ccc2ccccc2c1-c1c(OCc2cn([C@H](CCCNC(=N)N)C(=O)NCc3ccccc3)nn2)ccc2ccccc12.Cl

4 µg/mL
8 µg/mL
8 µg/mL
4 µg/mL
4 µg/mL

Source of measurements: ChEMBL document CHEMBL4393656
